Taken from ChEMBL document CHEMBL3988442.

Molecular target: Tyrosyl-tRNA synthetase, putative (Trypanosoma cruzi (strain CL Brener)) (UniProt Q4DSP6)
Sequence (Q4DSP6 as listed by the source): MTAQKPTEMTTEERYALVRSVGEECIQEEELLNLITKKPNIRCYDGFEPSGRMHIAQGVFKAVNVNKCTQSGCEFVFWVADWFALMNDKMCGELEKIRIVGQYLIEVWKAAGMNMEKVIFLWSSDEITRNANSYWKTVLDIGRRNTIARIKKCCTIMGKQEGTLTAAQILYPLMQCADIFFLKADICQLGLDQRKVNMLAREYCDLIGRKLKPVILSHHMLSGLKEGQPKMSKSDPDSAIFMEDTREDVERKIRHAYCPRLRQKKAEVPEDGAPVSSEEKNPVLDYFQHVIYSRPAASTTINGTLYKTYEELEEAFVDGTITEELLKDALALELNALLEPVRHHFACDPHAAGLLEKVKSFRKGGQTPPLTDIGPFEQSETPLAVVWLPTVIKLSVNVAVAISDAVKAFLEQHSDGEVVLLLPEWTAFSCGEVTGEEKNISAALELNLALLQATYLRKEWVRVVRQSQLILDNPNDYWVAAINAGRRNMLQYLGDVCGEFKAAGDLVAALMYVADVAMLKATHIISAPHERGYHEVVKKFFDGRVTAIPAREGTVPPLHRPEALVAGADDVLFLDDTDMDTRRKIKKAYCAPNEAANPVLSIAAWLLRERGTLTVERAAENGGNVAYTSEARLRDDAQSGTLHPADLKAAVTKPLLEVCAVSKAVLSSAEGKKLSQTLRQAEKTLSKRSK
Assay: Trypanosoma cruzi tyrosyl tRNA synthetase (TcYRS) SOP
Assay type: functional
Set-up: scale not given: direction of the effect not stated beside the values
Conditions: 30 µM
Property Label: Percent Effect (%)
# output: bare number, implied unit %

// recorded Percent Effect for COc1ccc(CN2CCN(C(C)=O)CC3(CC(=O)N(C)C3)C2)cc1 (stereo not drawn) : 20

// recorded Percent Effect for `CCn1cc(NC(=O)CCc2ccc3c(c2)OCCCO3)cn1` : 23.5

Pending compound:
// recorded Percent Effect for Cc1nn(-c2ccccc2)c2c1C(c1ccc(C(=O)O)cc1)CC(=O)N2 (stereo not drawn) : 6.17

* * *

Target: Ubiquitin-activating enzyme e1, putative (Leishmania donovani (strain BPK282A1)) (UniProt E9BSI1)
Sequence (E9BSI1 as listed by the source): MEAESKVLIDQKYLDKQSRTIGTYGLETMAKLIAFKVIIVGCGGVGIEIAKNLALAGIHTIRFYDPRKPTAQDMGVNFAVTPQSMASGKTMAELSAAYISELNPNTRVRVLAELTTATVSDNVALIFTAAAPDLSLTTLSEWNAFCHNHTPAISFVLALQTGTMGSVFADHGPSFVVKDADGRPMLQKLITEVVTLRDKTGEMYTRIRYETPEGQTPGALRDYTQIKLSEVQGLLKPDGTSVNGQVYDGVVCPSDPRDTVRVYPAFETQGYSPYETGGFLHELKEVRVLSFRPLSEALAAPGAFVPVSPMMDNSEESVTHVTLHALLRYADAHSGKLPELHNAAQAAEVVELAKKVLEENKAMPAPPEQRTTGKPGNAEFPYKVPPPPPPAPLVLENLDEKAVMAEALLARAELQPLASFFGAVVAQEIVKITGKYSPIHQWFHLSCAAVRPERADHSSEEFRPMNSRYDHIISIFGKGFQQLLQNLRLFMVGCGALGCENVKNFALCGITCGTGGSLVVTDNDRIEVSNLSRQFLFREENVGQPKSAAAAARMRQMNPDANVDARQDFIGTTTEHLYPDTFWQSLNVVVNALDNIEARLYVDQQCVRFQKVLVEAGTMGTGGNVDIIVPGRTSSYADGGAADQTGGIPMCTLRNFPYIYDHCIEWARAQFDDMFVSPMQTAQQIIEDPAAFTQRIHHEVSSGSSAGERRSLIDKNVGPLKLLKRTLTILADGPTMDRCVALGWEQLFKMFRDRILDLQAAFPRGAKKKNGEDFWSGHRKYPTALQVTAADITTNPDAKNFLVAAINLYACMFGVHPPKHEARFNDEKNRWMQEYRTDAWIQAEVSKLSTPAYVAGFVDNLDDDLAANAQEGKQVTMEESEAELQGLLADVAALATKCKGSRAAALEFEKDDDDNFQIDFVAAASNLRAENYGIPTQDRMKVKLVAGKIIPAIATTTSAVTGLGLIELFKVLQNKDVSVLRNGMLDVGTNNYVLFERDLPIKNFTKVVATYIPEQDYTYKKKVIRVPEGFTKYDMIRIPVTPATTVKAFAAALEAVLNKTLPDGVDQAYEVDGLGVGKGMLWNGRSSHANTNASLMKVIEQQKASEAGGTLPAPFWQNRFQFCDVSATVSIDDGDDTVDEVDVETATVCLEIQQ
Experiment: Leishmania donovani Ubiquitin Activating Enzyme (LdE1)
Format: functional
Design: scale not given: direction of the effect not stated beside the values
Conditions: 30 µM
Potency and affinity values are given separately.
Property Label: Percent Effect (%)
# output: bare number, implied unit %

Answered examples (2):
// recorded Percent Effect for `O=C(CSc1ncccn1)N1C[C@H]2CC[C@@H]1CN(Cc1ccncc1)C2` : 11

// recorded Percent Effect for Cc1cccc(C(=O)NC(CN2CCCC2=O)c2ccccc2)n1 (stereo not drawn) : 13.2

---
// recorded Percent Effect for Nc1cc(CCC2CN(Cc3ccc(C(=O)O)cc3)CCO2)ccn1 (stereo not drawn) : 9.33

// recorded Percent Effect for `COCc1nc(CNC2CCSCC2)no1` : 2.7

// recorded Percent Effect for `COc1ccc(Nc2nc3c(C)nn(C)c3c(=O)n2C)c(OC)c1` : 15.6

// recorded Percent Effect for O=C(Cc1noc2ccccc12)N1CCCC1c1noc(C2CC2)n1 (stereo not drawn) : -2.7

// recorded Percent Effect for Cc1ccc2oc(C(=O)N3CCCC(n4nc(C)cc4C)C3)cc2n1 (stereo not drawn) : 10.3

// recorded Percent Effect for CCn1cc2c(n1)C(COC)CN(Cc1ccccn1)C2 (stereo not drawn) : 9.09

// recorded Percent Effect for `Cc1ccnc(OCC(=O)N2CCC(C(N)=O)CC2)n1` : 21.9

// recorded Percent Effect for Cn1cnc2c1C(COCc1ccccc1)N(Cc1ccncc1)CC2 (stereo not drawn) : 2.67

// recorded Percent Effect for CC(=O)N(Cc1ncc(C)o1)C1CCN(CCCc2cnn(C)c2)C1 (stereo not drawn) : 18.7

// recorded Percent Effect for CCOCC1CN(S(C)(=O)=O)Cc2cnn(CC3CCOCC3)c21 (stereo not drawn) : 1.3

// recorded Percent Effect for `NC(=O)CC1CCN(C(=O)CCOc2ccc(Cl)cc2)CC1` : 10.5

* * *

We begin with a simple list: items and their reported Percent Effect.
Target: Chromo domain-containing protein 1 (Saccharomyces cerevisiae (strain ATCC 204508 / S288c) (Baker's yeast))
Experiment: ScCHD-1 Enzyme Inhibition Assay; note: in the data most compounds retested in dose-response had high values
Type: functional
Design: scale not given: direction of the effect not stated beside the values
Conditions: 30 µM
# output: bare number, implied unit %

Answered examples (8):
// recorded Percent Effect for `CC(C)c1nnc2n1CCN(CC(=O)N1CCc3ccccc3C1)C2` : -9.88

// recorded Percent Effect for `Cc1nc([C@@H]2C[C@@H]3CCN(C(=O)Cc4ccsc4)C[C@H]3O2)no1` : -2.29

// recorded Percent Effect for `CCNC(=O)c1ncn2c1CN(C)S(=O)(=O)c1ccccc1-2` : -0.402

// recorded Percent Effect for c1coc(-c2noc(CN3CCCC(Cn4cncn4)C3)n2)c1 (configuration not stated) : -5.56

// recorded Percent Effect for `CCc1nc(C)c(C(=O)NCCNc2cnccn2)s1` : -8.55

// recorded Percent Effect for `CCS(=O)(=O)N1CC[C@H](OC)[C@@H]1Cc1ccncc1` : -5.24

// recorded Percent Effect for `c1cnc(NCc2cncc3c2CCN(Cc2cccs2)C3)nc1` : -5.11

// recorded Percent Effect for `CC(C)c1cc(NC(=O)CN2CCc3cncnc3C2)on1` : -6.84

---
// recorded Percent Effect for COc1ccc(C2=CCN(C(=O)C3CCCN(C(N)=O)C3)CC2)cc1 (configuration not stated) : -7.24

// recorded Percent Effect for CCOCC1CN(S(C)(=O)=O)Cc2cnn(CC3CCOCC3)c21 (configuration not stated) : -2.94

// recorded Percent Effect for CNc1cc(C2CCCN2Cc2ccccc2OCC(=O)O)ccn1 (configuration not stated) : -8.55

// recorded Percent Effect for `Cc1ccc(NC2CCN(C(=O)Cc3csc(C)n3)CC2)nn1` : -4.45

// recorded Percent Effect for `CN1CCN(c2cc(CNC(=O)c3ccc(=O)n(C)c3)ccn2)CC1` : -8.95

// recorded Percent Effect for `Cn1cnnc1S(=O)(=O)C1CCN(S(=O)(=O)C2CC2)CC1` : -1.03

// recorded Percent Effect for CCc1ccc(CN2CCC3(CC2)CC(N2CCN(C)CC2)CO3)cc1 (configuration not stated) : 14

// recorded Percent Effect for CCC(C)NC(=O)c1ccccc1-n1cnnn1 (configuration not stated) : -6.11

// recorded Percent Effect for CCc1n[nH]c(C2CN(CC(=O)NCCc3ccsc3)CCO2)n1 (configuration not stated) : -5.13

// recorded Percent Effect for COCCN1CCC(CNC(=O)c2cc(C)cc(C)c2)C1 (configuration not stated) : -4.84

// recorded Percent Effect for CCCc1cc(C(=O)N2CCOC(c3nc(-c4cccs4)no3)C2)no1 (configuration not stated) : -19.9

// recorded Percent Effect for `O=C1O[C@@H]2CN(Cc3cccc(F)c3)C[C@@H]2N1CCCN1CCOCC1` : -10.6

// recorded Percent Effect for `CCn1cc(NC(=O)NCc2ccc3c(c2)OCCO3)cn1` : -7.59

* * *

Target: Arginase-2, mitochondrial (Homo sapiens) (UniProt P78540)
Sequence (P78540 whole entry): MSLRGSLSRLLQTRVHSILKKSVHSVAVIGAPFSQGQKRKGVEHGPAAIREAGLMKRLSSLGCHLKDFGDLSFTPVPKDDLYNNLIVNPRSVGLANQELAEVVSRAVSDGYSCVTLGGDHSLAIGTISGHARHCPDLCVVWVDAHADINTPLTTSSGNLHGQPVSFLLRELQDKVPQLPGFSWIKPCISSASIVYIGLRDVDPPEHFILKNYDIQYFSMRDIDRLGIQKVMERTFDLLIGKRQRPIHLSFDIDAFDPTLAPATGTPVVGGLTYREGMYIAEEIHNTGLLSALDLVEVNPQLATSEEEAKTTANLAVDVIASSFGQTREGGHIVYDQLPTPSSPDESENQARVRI
Test: in vitro enzyme assay to detect the production of urea directly proportional to the activity of Arginase II; note: in the data most compounds retested in dose-response had high values
Assay type: functional
Set-up: scale not given: direction of the effect not stated beside the values
Details: 33.3 µM
Property Label: Percent Effect (%)
# output: bare number, implied unit %

Answered examples (3):
// recorded Percent Effect for COc1cccc(C(=O)N2CCCC(c3cc(C)[nH]n3)C2)c1OC (centres undefined) : -2.81

// recorded Percent Effect for `O=C1O[C@@H]2CN(Cc3cccc(F)c3)C[C@@H]2N1CCCN1CCOCC1` : 12.5

// recorded Percent Effect for `O=C(c1ccnnc1)N1CCN2C[C@H](Oc3cccc(F)c3)C[C@H]2C1` : -20.2

---
// recorded Percent Effect for `Cc1cc2nc(SCC(=O)N3CCCC3)n(C(C)C)c(=O)c2[nH]1` : -1.18

* * *

Biological target: Protein translocase subunit SecA (Escherichia coli (strain K12)) (UniProt P10408)
Sequence (P10408 whole entry): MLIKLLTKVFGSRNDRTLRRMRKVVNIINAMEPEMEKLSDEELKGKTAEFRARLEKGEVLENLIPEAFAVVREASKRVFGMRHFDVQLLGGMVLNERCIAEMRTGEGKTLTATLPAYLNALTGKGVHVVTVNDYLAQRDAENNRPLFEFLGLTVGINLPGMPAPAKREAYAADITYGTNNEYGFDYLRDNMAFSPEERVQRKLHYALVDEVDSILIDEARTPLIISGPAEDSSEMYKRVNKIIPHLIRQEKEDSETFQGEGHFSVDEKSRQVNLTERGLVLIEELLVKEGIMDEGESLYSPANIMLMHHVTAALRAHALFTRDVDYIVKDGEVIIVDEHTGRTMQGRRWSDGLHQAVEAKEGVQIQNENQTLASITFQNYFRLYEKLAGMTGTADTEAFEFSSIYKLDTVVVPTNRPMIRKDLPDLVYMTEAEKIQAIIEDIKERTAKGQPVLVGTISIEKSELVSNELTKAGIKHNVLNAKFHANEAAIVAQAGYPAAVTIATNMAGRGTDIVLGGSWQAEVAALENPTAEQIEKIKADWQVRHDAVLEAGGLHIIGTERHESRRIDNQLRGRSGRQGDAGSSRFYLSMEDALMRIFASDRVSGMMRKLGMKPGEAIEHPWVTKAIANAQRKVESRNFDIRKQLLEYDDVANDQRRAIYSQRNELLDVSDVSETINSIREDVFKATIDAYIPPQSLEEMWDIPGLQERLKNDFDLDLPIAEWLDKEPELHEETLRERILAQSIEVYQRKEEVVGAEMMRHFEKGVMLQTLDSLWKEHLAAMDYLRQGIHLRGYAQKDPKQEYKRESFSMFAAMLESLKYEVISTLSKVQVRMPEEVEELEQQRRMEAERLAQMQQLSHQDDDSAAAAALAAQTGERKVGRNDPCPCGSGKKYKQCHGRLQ
Assay: Assay to Identify E. coli SecA ATPase Inhibitors
Type: functional
Parameters: scale not given: direction of the effect not stated beside the values
Conditions: 30 µM
Entries with a potency or affinity are not part of this list.
We begin with a simple list: items and their reported Percent Effect.
# output: bare number, implied unit %

Answered examples (2):
Known value: Protein translocase subunit SecA (Escherichia coli (strain K12)) (UniProt P10408) Percent Effect of the compound `Cc1nn(CC(=O)N2CCN(c3ccccc3F)CC2)c(C)c1Cl` equals 0.317

Known value: Protein translocase subunit SecA (Escherichia coli (strain K12)) (UniProt P10408) Percent Effect of the compound CCCn1[nH]cc/c1=N\C(=O)CN1CCOC(Cn2cc(C)cn2)C1 (stereo not given) equals -8.16

---
Known value: Protein translocase subunit SecA (Escherichia coli (strain K12)) (UniProt P10408) Percent Effect of the compound `CC(C)CN1CCC(NC(=O)c2ccc(F)cc2I)CC1` equals -4.38

Known value: Protein translocase subunit SecA (Escherichia coli (strain K12)) (UniProt P10408) Percent Effect of the compound `Fc1cccc(CN2CCO[C@H]3[C@@H](OCc4ccccn4)CC[C@@H]32)c1` equals -6.18

Known value: Protein translocase subunit SecA (Escherichia coli (strain K12)) (UniProt P10408) Percent Effect of the compound Cc1csc(N2CCN(Cc3cnc(C)s3)CC2C)n1 (stereo not given) equals -4.06

* * *

We begin with a simple list: items and their reported Percent Effect.
Species: Homo sapiens
Assay: To identify inhibition of the IFN signalling (Jak-Stat) pathway via expression of an eGFP reporter gene under the control of an IFN-stimulated response element (ISRE) containing MxA promoter.
Format: functional
Design: scale not given: direction of the effect not stated beside the values
Details: 30 µM
# output: bare number, implied unit %

Answered examples (4):
// recorded Percent Effect for `O=C(c1ccc[nH]1)N1C[C@H]2CC[C@@H]1CN(c1ncccn1)C2` : -14.3

// recorded Percent Effect for `Cn1cc(CN2CC[C@H]3OCC[C@@H](C(=O)N4CCCCO4)[C@@H]3C2)cn1` : 6.18

// recorded Percent Effect for `COC(=O)CN1CC(c2nc(Cc3ccccc3)no2)C1` : 12.4

// recorded Percent Effect for `Cn1cc(Br)c(=O)c(NS(=O)(=O)c2cc(F)ccc2Cl)c1` : 6.19

Pending compound:
// recorded Percent Effect for `Cc1cc2c(=O)n3c(nc2s1)CCN(C(=O)c1scnc1C)CC3` : -18
